- System: HL-60(TB) leukemia
- protocol text: NCI tumour cell line growth inhibition, 48 h
test readout: TGI

{"columns": ["molecule", "result"],
 "data": [
  ["CCOC(CN(C)C(=O)Nc1cccc2ccccc12)OCC", "> 10 µM"],
  ["Cn1cc2ccccc2c1-c1nc(F)nc(F)n1", "> 100 µM"],
  ["CC(=O)OCC1=C(CCC#N)N2C(=O)C(NC(=O)Cc3cccs3)C2S(=O)C1 (stereo unspecified)", "> 100 µM"],
  ["CCOC(=O)c1cccn1S(=O)(=O)c1cc(Cl)ccc1NC(=O)CC", "> 100 µM"],
  ["Cc1cc(=O)n(-c2ccccc2C)c(C)n1", "> 100 µM"],
  ["CCc1cc(C(=O)OC)cn1C(=N)c1ccc(Cl)cc1", "> 100 µM"]
]}

----------
Each entry below carries its recorded TGI.
- Test system: UACC-257 melanoma
- protocol text: NCI tumour cell line growth inhibition, 48 h
test readout: TGI

{"columns": ["compound", "result"],
 "data": [
  ["CCOC(=O)P(=O)(O)c1ccc(N(C)Cc2ccccc2)cc1", "> 100 µM"],
  ["O=C1/C(=C\\c2ccc(O)cc2)CCC/C1=C/c1ccc(Cl)c(Cl)c1", "15.7 µM"],
  ["C[C@]12C=CC(=O)C=C1CC[C@@H]1[C@@H]2CC[C@]2(C)OC(=O)CC[C@@H]12", "> 500 µM"],
  ["CN1CCc2[nH]c3ccccc3c2C1", "> 100 µM"],
  ["CNC1=C(C)C(=O)C(=O)C([C@H](C)CCC=C(C)C)=C1O", "> 100 µM"],
  ["C=C(C)C1=CCC[C@]2(C1)N=C(OC)[C@@H](C(C)C)N=C2OC", "> 100 µM"],
  ["O=C(CCCCCCCCC(=O)N/N=C\\c1ccccc1O)N/N=C\\c1ccccc1O", "4.07 µM"],
  ["O=C(ON=C1c2ccccc2C(Br)C(Br)c2ccccc21)c1cc([N+](=O)[O-])cc([N+](=O)[O-])c1 (stereo not drawn)", "33.2 µM"],
  ["CCOc1ccc2c(c1)[n+]([O-])c(-c1ccc(Cl)cc1)c(N)[n+]2[O-]", "> 100 µM"],
  ["Cc1cccc(C)c1NC(=O)C(C#N)C1=C(Cl)C(=O)c2ccccc2C1=O (stereo not drawn)", "21.6 µM"],
  ["COc1cc(/C=C/C(=O)c2cccc(Nc3nc(Nc4ccccc4)nc(Nc4ccccc4)n3)c2)cc(OC)c1OC", "> 100 µM"],
  ["Clc1ccc(C2SCc3nc4ccccc4n32)c(Cl)c1 (stereo not drawn)", "22.2 µM"],
  ["O=C1C(Cl)C2(CC(/C=C/c3ccccc3Cl)=NN2c2cccc(S(=O)(=O)O)c2)N1c1nc2ccccc2s1 (stereo not drawn)", "> 100 µM"],
  ["O=c1[nH]c2cc([N+](=O)[O-])ccc2nc1/C(=N/Nc1ccccc1)C(O)c1ccccc1Cl (stereo not drawn)", "> 100 µM"],
  ["CCN(CC)c1c(C(=O)/C=C/c2ccc(OC)cc2)c(-c2ccccc2)nn(C)c1=O", "60.8 µM"],
  ["O=C(c1cccs1)N(C(=S)N1CCN(c2ccccn2)CC1)c1ccccc1", "> 100 µM"],
  ["CN1CCOC(c2ccc(Cl)cc2)O1 (stereo not drawn)", "> 100 µM"],
  ["COc1ccc(Nc2nnc(-c3nsc4ccccc34)s2)cc1", "> 100 µM"],
  ["O=C1NC2ON=C(c3ccccc3)C2C2ON=C(c3ccccc3)N12 (stereo not drawn)", "> 100 µM"],
  ["FC(F)(F)c1ccc(Nc2nc(-c3c(C(F)(F)F)nc4ccccn34)cs2)cc1", "8.64 µM"],
  ["CN(C)CCN1C(=O)c2ccccc2N(C)c2ccccc21", "> 100 µM"],
  ["CC(=O)C(=C(c1ccccc1)c1ccccc1)c1ccccc1", "> 100 µM"],
  ["c1ccc2c(c1)cc(C1NCCc3[nH]cnc31)c1ccccc12 (stereo not drawn)", "> 68.3 µM"],
  ["COc1cc(OC(=O)c2ccccc2)cc2c1C(=O)C=CC2=O", "31.6 µM"],
  ["COc1ccc(-c2c[nH]c(C(=O)O)c2-c2cc(OC)c(OC)c(OC)c2)cc1", "> 100 µM"],
  ["C[C@H]1[C@H](C)CC[C@]2(CO)CC[C@]3(C)C(=CC[C@@H]4[C@@]5(C)CCCNC(C)(C)[C@@H]5CC[C@]43C)[C@H]12", "3.7 µM"],
  ["Cn1cc(-c2nc(-c3c[nH]c4ccncc34)cs2)c2cc(Br)ccc21", "3.52 µM"],
  ["CCCCOC(=O)C1C2CCC(O2)C1C(=O)OCCCC (stereo not drawn)", "> 92.2 µM"]
]}
